# TARGET_SYSTEM: T1, mouse KLB (mouse, UniProt Q99N32 53-990)
# T1 construct: expressed from KLB cDNA on HEK293T cells and read by FACS; also called msKLB
# T1 sequence: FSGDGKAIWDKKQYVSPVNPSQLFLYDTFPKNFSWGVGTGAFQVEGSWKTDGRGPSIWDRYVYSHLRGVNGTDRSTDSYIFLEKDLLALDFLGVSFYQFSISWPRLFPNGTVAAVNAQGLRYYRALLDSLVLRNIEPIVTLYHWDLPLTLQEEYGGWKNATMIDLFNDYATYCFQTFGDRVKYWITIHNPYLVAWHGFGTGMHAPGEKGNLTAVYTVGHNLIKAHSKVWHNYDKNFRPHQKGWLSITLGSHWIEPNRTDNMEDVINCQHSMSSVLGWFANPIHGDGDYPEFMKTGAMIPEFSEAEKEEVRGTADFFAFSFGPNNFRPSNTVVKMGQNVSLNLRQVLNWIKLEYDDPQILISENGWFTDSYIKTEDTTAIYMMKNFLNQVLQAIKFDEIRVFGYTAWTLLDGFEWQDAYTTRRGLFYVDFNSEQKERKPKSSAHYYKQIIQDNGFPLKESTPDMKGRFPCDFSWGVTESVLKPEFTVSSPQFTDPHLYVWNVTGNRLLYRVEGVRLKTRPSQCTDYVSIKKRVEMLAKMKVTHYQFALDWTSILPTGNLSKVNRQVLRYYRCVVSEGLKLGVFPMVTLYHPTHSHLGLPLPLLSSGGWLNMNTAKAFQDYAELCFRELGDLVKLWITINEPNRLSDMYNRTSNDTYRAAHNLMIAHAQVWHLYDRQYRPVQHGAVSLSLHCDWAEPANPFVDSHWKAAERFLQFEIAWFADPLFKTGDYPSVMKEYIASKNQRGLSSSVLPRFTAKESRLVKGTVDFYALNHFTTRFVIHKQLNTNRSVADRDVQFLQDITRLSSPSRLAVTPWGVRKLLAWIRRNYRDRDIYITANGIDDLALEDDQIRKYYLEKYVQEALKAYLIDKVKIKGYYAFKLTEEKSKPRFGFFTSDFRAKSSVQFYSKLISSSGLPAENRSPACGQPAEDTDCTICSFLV
# ASSAY_OVERVIEW: FACS on transfected HEK293T cells
READOUT: binding result

>  <BINDER>
25F7 (antibody, V domains shown, murine hybridoma-derived anti-KLB antibody) VH: EVQLQQSGAELLKPGASVRLSCTASGFNIQDTFTHWVRQRPEQGLEWIGRIDPSNGNTKYDPKFQGKAKILADTSSNTAYLQLIGLTSEDTAVYYCASRALGNGYAMDYWGQGTSVTVSS VL: DIQMTQSSSYLSVSLGGRVTITCKASDHINNWLAWYQQKPGNAPRLLISGASNLETGIPSRFSGSGSGKDYTLTITSLQTEDVATYYCQQYWNTPFTFGSGTKLEIK

>  <RESULT>
no binding

$$$$
>  <BINDER>
14C10 (antibody, V domains shown, murine hybridoma-derived anti-KLB antibody; also called KLBmAb3) VH: QVTLKESGPGILQPSQTLSLTCSFSGFSLSTSAMGIGWIRQPSGKGLEWLAHIWWDDDKRYNPALKSRLTISKDTSRNQVFLKIASVDTADTATYFCARIDGIYDGSFYAMDYWGQGTSVTVSS VL: DIVLTQSPASLAVSLGQRATISCRASESVDSYGNSFMHWYQQKPGQPPKLLIYRASNLESGIPARFSGSGSRTDFTLTINPVEADDVANYYCQQSNEDYTFGGGTKLEIK

>  <RESULT>
no binding

$$$$
>  <BINDER>
6C1 (antibody, V domains shown, murine hybridoma-derived anti-KLB antibody; also called KLBmAb4) VH: QVQLQQSGDELMKPGASVKISCKVTGNTFSSYWIEWVKQRPGHGLEWIGEILPGSDSTKYVEKFKVKATFTADTSSNTAYMQLSSLTSEDSAVYYCARGGYHYPGWLVYWGQGTLVTVSA VL: DIVMTQSQKFMSTSVGDRVSVTCKASQNVDSYVAWYQQKAGQSPKPLIYSASYRFSGVPDRFTGSGSGTEFTLTISNVQSEDLAEYFCQQYNISPYTFGGGTKLEIK

>  <RESULT>
no binding

$$$$
>  <BINDER>
8C5 (antibody, V domains shown, murine hybridoma-derived anti-KLB antibody; also called KLBmAb1) VH: QVQLKQSGPGLVQPSQSLSVACTVSDFSLTTYGVHWVRQSPGKGLEWLGVIWSGGSTDYNAAFISRLTISKDNSKSQVFFKMNSLQTTDTAIYYCARDYGSTYVDAIDYWGQGTSVTVSS VL: DIVLTQSPTSLAVSLGQRATISCRASESVESYGNRYMTWYQQKPGQPPKLLIYRAANLQSGIPARFSGSGSRTDFTLTIDPVEADDVATYYCQQSNEDPWTFGGGTKVEIK

>  <RESULT>
binds

$$$$

Dear colleague, I am looking for the recorded binding result of the following binder: 46C3 (antibody, V domains shown, murine hybridoma-derived anti-KLB antibody) VH: EVQLQQSGAELVKPGASVKLSCTASDFNIIDTYIHWVKQRPEQGLEWIGRIDPANGNTKYDPKFQDKAALTSDTDSNTAYLLFNSLTSEDTAVYYCARGTSYSWFAYWGQGTLVSVSA VL: AVLMTQTPLSLPVSLGDQASISCRSSQNIVHSDGNTYLEWYLQKPGQSPKLLIYKVSNRFSGVPDRFSGSGSGRDFTLKISRVEAGDLGVYYCFQGSHVLTFGAGTRLELK
no binding

Okay, and 14C6 (antibody, V domains shown, murine hybridoma-derived anti-KLB antibody) VH: QIQLQQSGAELMKPGASVRMSCKASGYTFSSYWIEWVKQRSGHGLEWIGEIFPGGGSTIYNENFRDKATFTADTSSNTAYMQLSSLTSEDSAVYFCARRGYYDAAWFDYWGQGTLVTVSA VL: QIVLTQSPAIMSASPGERVTLTCSASSSLSSSYLYWYQQKPGSSPKLWIYGASNLASGVPGRFSGSGSGTSYSLTISSMEAEDAASYFCHQWSSYPLTFGSGTKLELK ?
binds

Same question for 12B8 (antibody, V domains shown, murine hybridoma-derived anti-KLB antibody) VH: QIQLVQSGPELKKPGETAKISCKASGYAFSNYGMNWVKQAPGKDLKWMGWIDTDTGEATYTDDFKGRFVFSLETSASTAYLQINNLKNEDMATYFCAREEYGLFGFPYWGHGTLVTVSA VL: DIQMTQSSSSFSVSLGDRVTITCKASEDIYNRLAWYQQKPGSAPRLLISAATSLETGVPSRFSGSGSGKDYTLSITSLQTEDVATYYCQQYWSNPLTFGAGTKLEIK please.
no binding

Check 11D4 (antibody, V domains shown, murine hybridoma-derived anti-KLB antibody; also called KLBmAb5) VH: QVQVKESGPGLVAPSQSLSITCTVSGFSLTNYGVSWIRQPPGKGLEWLGVIWGDGSINYHSALISRLTITKDNSKSQVFLKLNSLEADDTATYYCAKTHDWFDYWGQGTLVTVSA VL: DIQMTQTPSSLSASLGDRVTINCRASQDISNYFNWYQQKPNGTIKLLIYYTSRLQSGVPSRFSGSGSGTDYSLTISNLEQEDKATYFCHQVRTLPWTFGGGTKLEIK too.
no binding

Also 8E1 (antibody, V domains shown, murine hybridoma-derived anti-KLB antibody) VH: EVQLQQSGAELVKPGASVKLSCTAADFNIKDTYMHWVKQRPEQGLEWIGRIDPSNGNAKYDPKFQGKASITADSSSNTAYLHLSSLTSEDTAVYYCASRALGNGYALGYWGQGTSVTVSS VL: DIQMTQSSSYLSVSLGGSVTITCKASDHINNWLAWYQQKPGNAPRLLIYGTTNLETGVPSRFSGSGSGRDYILSITSLQSEDVASYYCQQYWNTPFTFGSGTKLEIK , if possible.
no binding

For 5F8 (antibody, V domains shown, murine hybridoma-derived anti-KLB antibody) VH: EVQLQQSGTELVRPGASVKLSCTSSDFNIKDTYIHWVKQRPEQGLDWLGRIDPANGNTKYDPKFQGKAAMTSDTSSNTAYLRLSSLTSEDTAVYYCASSGNYGAMDYWGQGTSVTVSS VL: ESVLTQSPALMSASLGEKVTMTCRASSSVNHMYWYQQKSDASPKLWIYYTSTLAPGVPARFSGSGSGNSYSLTISSMEGEDAATYYCQQFTISPSMYTFGGGTKLEIK then?
no binding
